assayText: Clearance in rat at 1 mg/kg
Assay type: ADME, organism-based
measurementParameters: in vivo
assayMetric: clearance (mL/min/kg)

compound="Clc1ccc(CNc2ccnc(N3CCC4(CCN(CC5CCCN5)C4)CC3)n2)c(Cl)c1 (racemic)" valuemeasured=15

====

targetEntity: C-C chemokine receptor type 4 (Homo sapiens)
assayText: Displacement of [125I]-TARC from human recombinant CCR4 expressed in CHO cell membranes by scintillation counting method
assayMetric: Ki

compound=O=C(C1CCCCC1)N1CCC2(CCN(c3nccc(NCc4ccc(Cl)cc4Cl)n3)CC2)C1 targetentity="C-C chemokine receptor type 4 (Homo sapiens)" valuemeasured="631 nM"
compound="O=C(C1CCCN1)N1CCC2(CCN(c3nccc(NCc4ccc(Cl)cc4Cl)n3)CC2)C1 (racemic)" targetentity="C-C chemokine receptor type 4 (Homo sapiens)" valuemeasured="25.1 nM"
compound="Clc1ccc(CNc2ccnc(N3CCC4(CCN(CC5CCCCN5)C4)CC3)n2)c(Cl)c1 (racemic)" targetentity="C-C chemokine receptor type 4 (Homo sapiens)" valuemeasured="2.51 nM"
compound=O=C([C@@H]1CCCCN1)N1CCC2(CCN(c3nccc(NCc4ccc(Cl)cc4Cl)n3)CC2)C1 targetentity="C-C chemokine receptor type 4 (Homo sapiens)" valuemeasured="20 nM"
compound=O=C(c1ccccn1)N1CCC2(CCN(c3nccc(NCc4ccc(Cl)cc4Cl)n3)CC2)C1 targetentity="C-C chemokine receptor type 4 (Homo sapiens)" valuemeasured="100 nM"
compound="O=C(C1CCNC1)N1CCC2(CCN(c3nccc(NCc4ccc(Cl)cc4Cl)n3)CC2)C1.O=C(O)C(F)(F)F (racemic)" targetentity="C-C chemokine receptor type 4 (Homo sapiens)" valuemeasured="50.1 nM"
compound=O=C([C@H]1CCCCN1)N1CCC2(CCN(c3nccc(NCc4ccc(Cl)cc4Cl)n3)CC2)C1 targetentity="C-C chemokine receptor type 4 (Homo sapiens)" valuemeasured="25.1 nM"
compound=Clc1ccc(CNc2ccnc(N3CCC4(CCN(C[C@H]5CCCN5)C4)CC3)n2)c(Cl)c1 targetentity="C-C chemokine receptor type 4 (Homo sapiens)" valuemeasured="5.01 nM"
compound="O=C(C1CCCNC1)N1CCC2(CCN(c3nccc(NCc4ccc(Cl)cc4Cl)n3)CC2)C1 (racemic)" targetentity="C-C chemokine receptor type 4 (Homo sapiens)" valuemeasured="50.1 nM"
compound="O=C(C1CCCN1)N1CCC2(CCN(c3nccc(NCc4ccc(F)cc4F)n3)CC2)C1 (racemic)" targetentity="C-C chemokine receptor type 4 (Homo sapiens)" valuemeasured="25.1 nM"
compound=O=C([C@H]1CCCN1)N1CCC2(CCN(c3nccc(NCc4ccc(Cl)cc4Cl)n3)CC2)C1 targetentity="C-C chemokine receptor type 4 (Homo sapiens)" valuemeasured="15.8 nM"
compound=O=C([C@H]1CCCCN1)N1CCN(c2nccc(NCc3ccc(Cl)cc3Cl)n2)CC1 targetentity="C-C chemokine receptor type 4 (Homo sapiens)" valuemeasured="2.51 nM"
compound=Clc1ccc(CNc2ccnc(N3CCC4(CCN(C[C@@H]5CCCN5)C4)CC3)n2)c(Cl)c1 targetentity="C-C chemokine receptor type 4 (Homo sapiens)" valuemeasured="3.98 nM"
compound="CN(Cc1ccc(Cl)cc1Cl)c1ccnc(N2CCC3(CCN(CC4CCCN4)C3)CC2)n1 (racemic)" targetentity="C-C chemokine receptor type 4 (Homo sapiens)" valuemeasured="1 nM"
compound=CNCC(=O)N1CCC2(CCN(c3nccc(NCc4ccc(Cl)cc4Cl)n3)CC2)C1.O=C(O)C(F)(F)F.O=C(O)C(F)(F)F targetentity="C-C chemokine receptor type 4 (Homo sapiens)" valuemeasured="126 nM"
compound=Cl.Cl.Clc1ccc(CNc2ccnc(N3CCC4(CCNC4)CC3)n2)c(Cl)c1 targetentity="C-C chemokine receptor type 4 (Homo sapiens)" valuemeasured="316 nM"
compound=O=C([C@@H]1CCCN1)N1CCC2(CCN(c3nccc(NCc4ccc(Cl)cc4Cl)n3)CC2)C1 targetentity="C-C chemokine receptor type 4 (Homo sapiens)" valuemeasured="100 nM"
compound="Fc1ccc(CNc2ccnc(N3CCC4(CCN(CC5CCCN5)C4)CC3)n2)c(F)c1 (racemic)" targetentity="C-C chemokine receptor type 4 (Homo sapiens)" valuemeasured="3.16 nM"
compound="Clc1ccc(CNc2ccnc(N3CCC4(CCN(CC5CCCN5)C4)CC3)n2)c(Cl)c1 (racemic)" targetentity="C-C chemokine receptor type 4 (Homo sapiens)" valuemeasured="1.58 nM"
compound="CN(Cc1ccc(Cl)cc1Cl)c1ccnc(N2CCC3(CCN(C(=O)C4CCCN4)C3)CC2)n1 (racemic)" targetentity="C-C chemokine receptor type 4 (Homo sapiens)" valuemeasured="25.1 nM"

====

# Lookup of reported log10 of solubility kinetic keyed by entry
assayText: Kinetic solubility of the compound by chemiluminescent nitrogen detection assay
Type: physicochemical
measurementParameters: read-out: Kinetic_solubility
assayMetric: log10 of solubility kinetic (log10 of the value in µg/mL)

compound=O=C([C@H]1CCCN1)N1CCC2(CCN(c3nccc(NCc4ccc(Cl)cc4Cl)n3)CC2)C1 valuemeasured=2.26
compound="Fc1ccc(CNc2ccnc(N3CCC4(CCN(CC5CCCN5)C4)CC3)n2)c(F)c1 (racemic)" valuemeasured=2.20
compound=O=C(C1CCCCC1)N1CCC2(CCN(c3nccc(NCc4ccc(Cl)cc4Cl)n3)CC2)C1 valuemeasured=0.48
compound="CN(Cc1ccc(Cl)cc1Cl)c1ccnc(N2CCC3(CCN(C(=O)C4CCCN4)C3)CC2)n1 (racemic)" valuemeasured=2.28
compound=O=C([C@H]1CCCCN1)N1CCN(c2nccc(NCc3ccc(Cl)cc3Cl)n2)CC1 valuemeasured=2.15

====

assayText: Plasma protein binding in human
Format: ADME, cell-free
measurementParameters: read-out: PPB (converted)
assayMetric: fraction unbound

compound="Clc1ccc(CNc2ccnc(N3CCC4(CCN(CC5CCCN5)C4)CC3)n2)c(Cl)c1 (racemic)" valuemeasured=0.068

====

targetEntity: C-C chemokine receptor type 4 (Homo sapiens) (UniProt P51679)
assayText: Induction of CCR4 internalisation in human HUT78 cells after 30 mins by flow cytometry
Format: functional, cell-based
assayMetric: Activity (%)

molecule="Fc1ccc(CNc2ccnc(N3CCC4(CCN(CC5CCCN5)C4)CC3)n2)c(F)c1 (racemic)" assaymetric=Activity valuemeasured=62
molecule=Clc1ccc(CNc2ccnc(N3CCC4(CCN(C[C@H]5CCCN5)C4)CC3)n2)c(Cl)c1 assaymetric=Activity valuemeasured=64
molecule="CN(Cc1ccc(Cl)cc1Cl)c1ccnc(N2CCC3(CCN(CC4CCCN4)C3)CC2)n1 (racemic)" assaymetric=Activity valuemeasured=74
molecule=Clc1ccc(CNc2ccnc(N3CCC4(CCN(C[C@@H]5CCCN5)C4)CC3)n2)c(Cl)c1 assaymetric=Activity valuemeasured=56

====

# Lookup of reported solubility kinetic keyed by entry
assayText: Kinetic solubility of the compound by chemiluminescent nitrogen detection assay
Type: physicochemical
measurementParameters: read-out: Kinetic_solubility
assayMetric: solubility kinetic (µg/mL)

compound=Cl.Cl.Clc1ccc(CNc2ccnc(N3CCC4(CCNC4)CC3)n2)c(Cl)c1 assaymetric="solubility kinetic" valuemeasured=144
compound="O=C(C1CCCN1)N1CCC2(CCN(c3nccc(NCc4ccc(F)cc4F)n3)CC2)C1 (racemic)" assaymetric="solubility kinetic" valuemeasured=175
compound="CN(Cc1ccc(Cl)cc1Cl)c1ccnc(N2CCC3(CCN(CC4CCCN4)C3)CC2)n1 (racemic)" assaymetric="solubility kinetic" valuemeasured=141
compound="O=C(C1CCNC1)N1CCC2(CCN(c3nccc(NCc4ccc(Cl)cc4Cl)n3)CC2)C1.O=C(O)C(F)(F)F (racemic)" assaymetric="solubility kinetic" valuemeasured=339
compound=O=C([C@H]1CCCCN1)N1CCC2(CCN(c3nccc(NCc4ccc(Cl)cc4Cl)n3)CC2)C1 assaymetric="solubility kinetic" valuemeasured=172
compound=Clc1ccc(CNc2ccnc(N3CCC4(CCN(C[C@H]5CCCN5)C4)CC3)n2)c(Cl)c1 assaymetric="solubility kinetic" valuemeasured=16
compound="Clc1ccc(CNc2ccnc(N3CCC4(CCN(CC5CCCN5)C4)CC3)n2)c(Cl)c1 (racemic)" assaymetric="solubility kinetic" valuemeasured=270
compound="O=C(C1CCCNC1)N1CCC2(CCN(c3nccc(NCc4ccc(Cl)cc4Cl)n3)CC2)C1 (racemic)" assaymetric="solubility kinetic" valuemeasured=186

====

# Lookup of reported EC50 keyed by entry
targetEntity: C-C chemokine receptor type 4 (Homo sapiens, UniProt P51679)
Sequence (P51679 whole entry): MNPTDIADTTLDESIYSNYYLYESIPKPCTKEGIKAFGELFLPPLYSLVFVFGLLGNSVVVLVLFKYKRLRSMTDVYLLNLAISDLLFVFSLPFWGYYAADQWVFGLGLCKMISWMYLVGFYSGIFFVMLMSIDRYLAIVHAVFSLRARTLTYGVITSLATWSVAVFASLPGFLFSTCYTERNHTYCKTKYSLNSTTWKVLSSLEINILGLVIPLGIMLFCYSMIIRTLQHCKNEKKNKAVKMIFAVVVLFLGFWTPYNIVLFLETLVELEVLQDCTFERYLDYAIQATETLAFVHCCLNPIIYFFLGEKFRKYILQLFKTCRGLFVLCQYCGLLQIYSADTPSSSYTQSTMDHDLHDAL
assayText: Induction of CCR4 internalisation in human HUT78 cells after 30 mins by flow cytometry
assayMetric: EC50 (nM)

molecule="Fc1ccc(CNc2ccnc(N3CCC4(CCN(CC5CCCN5)C4)CC3)n2)c(F)c1 (racemic)" unitname=nM valuemeasured=15.8
molecule=Clc1ccc(CNc2ccnc(N3CCC4(CCN(C[C@@H]5CCCN5)C4)CC3)n2)c(Cl)c1 unitname=nM valuemeasured=12.6
molecule=Clc1ccc(CNc2ccnc(N3CCC4(CCN(C[C@H]5CCCN5)C4)CC3)n2)c(Cl)c1 unitname=nM valuemeasured=6.31
molecule=COc1cc2nc(N3CCC(N(C)C(=O)[C@H]4CCCN4)CC3)nc(Nc3ccc(Cl)cc3F)c2cc1OC unitname=nM valuemeasured=398
molecule="CN(Cc1ccc(Cl)cc1Cl)c1ccnc(N2CCC3(CCN(CC4CCCN4)C3)CC2)n1 (racemic)" unitname=nM valuemeasured=158
